Give melting point for every item shown.

# molecule, endpoint-value
rows = [
    ("Cc1ccc2nc(C)c(C3=NN(C(=O)CN4CCN(c5ccc(Cl)cc5)CC4)C(c4cccc([N+](=O)[O-])c4)C3)n2c1 (centres unmarked) [Compound 3e]", "180 to 182 °C"),
    ("Cc1ccc2nc(C)c(C3=NN(C(=O)CN4CCC(=O)CC4)C(c4cccc([N+](=O)[O-])c4)C3)n2c1 (centres unmarked) [Compound 3a]", "170 to 172 °C"),
    ("Cc1ccc2nc(C)c(C3=NN(C(=O)CN4CCNCC4)C(c4cccc([N+](=O)[O-])c4)C3)n2c1 (centres unmarked) [Compound 3c]", "176 to 178 °C"),
]

For each listed entry, give its melting point.
1. Cc1ccc2nc(C)c(C3=NN(C(=O)CN4CCN(c5cccc(Cl)c5Cl)CC4)C(c4cccc([N+](=O)[O-])c4)C3)n2c1 (centres unmarked) [Compound 3f]
2. Cc1ccc2nc(C)c(C3=NN(C(=S)Nc4ccc([N+](=O)[O-])cc4)C(c4cccc([N+](=O)[O-])c4)C3)n2c1 (centres unmarked) [Compound 4b]

["122 to 124 °C", "230 to 232 °C"]
